Tested on: P. falciparum stage V gametocytes
Parameters: BacTiter-Glo ATP luminescence viability of purified stage V gametocytes in 384-well plates, per cent inhibition versus DMSO
Details: 48 h, 5 µM; inhibitor
The campaign covered roughly 13,000 compounds. About 3,200 (25%) showed an effect of 50% or more. Some of the results follow.
recorded.endpoint: % Inhibition (%)
Numbers only, in %.

See these solved cases before continuing.
| compound | % Inhibition (%) |
| --- | --- |
| CCCCCN(C(=O)Nc1cc(C(F)(F)F)cc(C(F)(F)F)c1)C(C)c1nc2ccccc2c(=O)n1CC (centres unmarked) | -29.97 |
| CSc1ccc(CN2CCC(NC(=O)c3ccc(-c4cccc(Cl)c4)s3)CC2)cc1 | 12.93 |
| COCCNCc1ncsc1-c1ccc2c(Nc3cc(O)ccc3C)ccnc2c1 | -33.69 |
| CCOC(=O)c1cnc2cc(N3CCCC3)c(Cl)cc2c1OCC | 37.97 |
| COc1ccc(S(=O)(=O)N2CCOCC2)cc1NC(=O)c1cc2ccccc2o1 | -2.829 |

Provide each entry's % Inhibition from the list below.
1. O=C(/C=C/c1ccc(Cl)c(Cl)c1)NCCCCCN1CCC(C(=O)Nc2ccc(F)c(Cl)c2)CC1
2. CO[C@H](C)[C@H](NC(=O)[C@H](CC(C)C)[C@H](CCC(F)(F)F)N(O)C=O)C(=O)Nc1nccs1
3. Cc1cccc2[nH]c(-c3ccc(-c4cccc(NCc5cn6cccnc6n5)c4)cc3)nc12

0.5724
15.4
-19.99

----------
System: P. falciparum stage V gametocytes
Design: BacTiter-Glo ATP luminescence viability of purified stage V gametocytes in 384-well plates, per cent inhibition versus DMSO
Conditions: 48 h, 5 µM; inhibitor
The whole screen tested about 13,000 compounds, of which about 3,200 (25%) showed an effect of 50% or more. The list shows a part of the results.
Threshold check on % Inhibition: at or above 90% gives class 1, strictly below gives class 0.

Take a look at these entries with their results.
| compound | assigned.category |
| --- | --- |
| CC(=O)Nc1ccc(NC(=O)c2cc(-c3ccc(C)cc3O)n[nH]2)cc1 [TCMDC-125182] | class 0 |
| CC(Cc1ccc(C(=O)Nc2ccc(CC(C)NCCc3cccc(Cl)c3)cc2)cc1)NCCc1ccc(C(F)(F)F)cc1 (centres unmarked) [TCMDC-139790] | class 1 |
| NCCNc1ccc([N+](=O)[O-])cc1C(=O)Nc1cccc(C(F)(F)F)c1 [TCMDC-123677] | class 0 |
| COc1ccc(-c2ccc([N+](=O)[O-])cc2C(=O)NCC(C)Oc2ccc(C(F)(F)F)cc2)cc1 (centres unmarked) [TCMDC-132304] | class 1 |

Is % Inhibition for CCCOc1ccc(CCCON2C(N)=NC(N)=NC2(C)C)cc1 [TCMDC-131757] at or above 90%?
class 0

Is % Inhibition for CC(=O)Nc1ccc(NC(=O)c2cc(-c3cc(Cl)ccc3O)n[nH]2)cc1 [TCMDC-125476] at or above 90%?
class 0

Is % Inhibition for COc1ccc(CCNC(C)Cc2ccc(C(=O)Nc3ccc(CC(C)NCCc4cccc(Cl)c4)cc3)cc2)cc1 (centres unmarked) [TCMDC-139750] at or above 90%?
class 1

Is % Inhibition for COc1ccc(OC(C)CNC(=O)c2cc([N+](=O)[O-])ccc2-c2ccc(OC)cc2)cc1 (centres unmarked) [TCMDC-132303] at or above 90%?
class 0
